Sourced from the supplement of paper PMC10567573

B1: ISL2 (parent)
chain: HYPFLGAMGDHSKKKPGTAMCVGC

Variants of: B1
ASSAY_METHOD_TEXT: protein stability index of a GFP-peptide fusion (GPS, HEK-293T) (PSI 1-6); higher = more stable;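 note: lentivirally expressed fusions sorted by FACS into six bins by GFP to DsRed ratio, PSI derived from sequencing read proportions per bin multiplied by bin number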
CONDITION_INFO: c terminus: a fixed tail appended
MEASURED_PARAMETER: protein stability index
Answers are plain numbers.

Study these solved cases before continuing.
>  <VARIANT_ID>
V22H

>  <protein stability index>
3.01

$$$$
>  <VARIANT_ID>
K13A

>  <protein stability index>
2.15

$$$$
>  <VARIANT_ID>
C21L

>  <protein stability index>
3.31

$$$$

Each variant below has a reported value. Please supply its protein stability index.
1. A7E
2. L5E
3. G23N

Marked response:
1: 3.79; 2: 3.78; 3: 2.72

Count: 2. Required value per item: protein stability index.
1. L5Y
2. G23H

Marked response:
1. 2.2
2. 2.52
